Tested on: EKVX NSCLC
Test: NCI-60 one-dose screen, 48 h (100 = growth as untreated, 0 = no growth, -100 = all killed)
Details: 10 µM unless noted
The panel holds about 83,000 compounds, 20% with a hit somewhere; the sample as a whole holds those more often.
Classify by measured growth: Yes if it is equal to or exceeds 90%, No if it is smaller.

> print(dat)
                                   molecule  class.label
1  CCCCCCCCCCCCCCCC(=O)OCC1OC(n2cnc3c(=S)nc(N)[nH]c32)C(OC(=O)CCCCCCCCCCCCCCC)C1OC(=O)CCCCCCCCCCCCCCC (stereo not drawn)           No
2  CN1CCN(Cc2ccc(NC(=O)c3[nH]ncc3Nc3ccnc4ccsc34)cc2)CC1           No
3  CC(C)C1=C[C@@]23CC[C@@H]4[C@](C)(CCC[C@@]4(C)C(=O)OCC#CCN4CCCC4)[C@H]2C[C@@H]1[C@H]1C(=O)OC(=O)[C@H]13           No
4  CCCCCCCCCC(=O)Oc1ccc(/C(=C(/C)Cc2cccc(OC)c2)c2ccc(OCCN(C)C)cc2)cc1          Yes
5  O=C1OC2C(I)C3CC2C1C3c1ccccc1 (stereo not drawn)          Yes
6  CCCCCCCCCC(=O)Oc1ccc(/C(=C(/C)c2ccccc2)c2ccc(OCCN3CCCC3)cc2)cc1           No
7  O=S(=O)(Nc1ccc(Cl)cc1Cl)c1ccc(-c2cnc(C3CC3)o2)cc1           No

----------
System: COLO 205 colon
Assay: NCI-60 one-dose screen, 48 h (100 = growth as untreated, 0 = no growth, -100 = all killed)
Settings: 10 µM unless noted
About 83,000 compounds went through this panel and 20% of them were active in at least one assay; those are over-represented in the sample as a whole.
Parameter growth: see the listing below.

compound	growth, %
O=c1ccc2cc3ccccc3cc2[nH]1	121
Nc1cc2ccncc2c2ccccc12	61.6
ClC1=C2NC=NC2n2c(nnc2-c2ccc(Cl)cc2)N1 (stereo not given)	89.8
CCOC(=O)c1nc(Nc2cc(C)[nH]n2)c2ccccc2n1	104
CNCCCn1c2c(c3ccc([N+](=O)[O-])cc3c1=O)C(=O)c1cc(OC)cnc1-2	-13.2
C/C(=C(/c1ccc(O)cc1)c1ccc(OCCN2CCCC2)cc1)c1ccccc1	-56.4
Cc1nn(-c2ccccc2)c2nc(C)n(-c3ccc(Br)cc3)c(=O)c12	1.32
COc1ccc(/C=N\NC(=O)CN2CCN(c3cc4c(cc3F)c(=O)c(C(=O)N/N=C/c3ccc(OC)cc3)cn4C3CC3)CC2)cc1	96.9
CCC(C)[C@@H]1NC(=O)[C@@H]2CCCN2C(=O)[C@H](Cc2ccccc2)NC(=O)[C@@H]2CCCN2C(=O)[C@H](Cc2ccccc2)NC(=O)[C@@H]2CCCN2C(=O)[C@H](Cc2ccccc2)NC1=O (stereo not given in full)	108
CCOC(=O)c1c2c(n3ccc(NC(=O)CCN4CCOCC4)cc13)C(=O)c1ncccc1C2=O	37.9

----------
Parameter growth: see the listing below.
Tested on: MDA-MB-435 melanoma
Experiment: NCI-60 one-dose screen, 48 h (100 = growth as untreated, 0 = no growth, -100 = all killed)
Details: 10 µM unless noted
Compounds without any hit were thinned out: in the full panel of roughly 83,000, 20% have a hit.
outcome measure: growth (%)

> print(dat)
                                   compound  outcome.measure  experimental.result
1  COc1nc2c(cc1S(=O)(=O)c1ccccc1)CCc1c-2cnn1-c1ccc(Cl)cc1           growth                 90.8
2  Cc1ccc(Nc2c(C(N)=O)cnc3ccc(-c4csc(N)n4)cc23)cc1           growth                  102
3  CC(C)c1c(C(=O)Nc2ccccc2)c(-c2ccccc2)c(-c2ccc(F)cc2)n1CC[C@@H]1CC=CC(=O)O1           growth                 2.54
4  O=C(O)C(O)C(O)C(=O)O.[NH-]C1CCCCC1[NH-].[Pt+2] (stereo not given)           growth                  104
5  COc1ccc(C/C(C)=C(\c2ccc(Cl)cc2)c2ccc(OCCN3CCCCCC3)cc2)cc1           growth                 88.7
